- assay text: Acute toxicity, intravenous administration to male ddY-strain mice
- particulars: mouse, in vivo
Listing of entries alongside the reported LD50.
Please state the figure in mg/kg; there is no need to write the unit.

>>> value_observed("O=S(=O)(c1cccc2cnccc12)N1CCNCC1 [Compound 35]")
29
>>> value_observed("CN1CCN(S(=O)(=O)c2cccc3cnccc23)CC1 [Compound 36]")
94
>>> value_observed("CCCCN(CCCC)CCCNS(=O)(=O)c1cccc2cnccc12 [Compound 19]")
180
>>> value_observed("NCCNS(=O)(=O)c1cccc2cnccc12 [Compound 1]")
108
>>> value_observed("CC1CN(S(=O)(=O)c2cccc3cnccc23)CCN1 (stereo not drawn) [Compound 37]")
89

Next compound, LD50 to be filled in.
Request: So what's the measured LD50 for this one? O=S(=O)(c1cccc2cnccc12)N1CCN(CC=Cc2ccccc2)CC1 [Compound 59]
Result: 145

====

- System: vertebral artery
- assay text: Effect on blood flow volume of vertebral artery of dog
- Assay type: in vivo, dog of mixed breed
- particulars: Canis lupus familiaris; 1 mg/Kg intravenous; anesthetized dog; read-out: Increased Blood Flow Volume in Vertebral Artery
Okay, here is how we bin by change in vivo at 1 mg/kg: band A: < 40%; band B: ≥ 40% and < 70%; band C: ≥ 70%

>>> label("CCCCN(CCCC)CCCNS(=O)(=O)c1cccc2cnccc12 [Compound 19]")
"band A"
>>> label("NCCCCNS(=O)(=O)c1cccc2cnccc12 [Compound 3]")
"band A"
>>> label("CC1CN(S(=O)(=O)c2cccc3cnccc23)CCN1 (stereo not drawn) [Compound 37]")
"band C"
>>> label("CN1CCN(S(=O)(=O)c2cccc3cnccc23)CC1 [Compound 36]")
"band B"
>>> label("CNS(=O)(=O)c1cccc2cnccc12 [Compound 25]")
"band A"

Request: Dear colleague, I would appreciate it if you could identify the bin for O=S(=O)(c1cccc2cnccc12)N1CCN(CC=Cc2ccccc2)CC1 [Compound 59] and reply at your convenience.
Result: band B

Request: Repeat for the following compound: O=S(=O)(c1cccc2cnccc12)N1CCCC1 [Compound 33]
Result: band A

Request: Also CC(C)CC1CN(S(=O)(=O)c2cccc3cnccc23)CCN1 (stereo not drawn) [Compound 46] , if possible.
Result: band B

Request: Moving on to the next compound: NCCNS(=O)(=O)c1cccc2cnccc12 [Compound 1]
Result: band B

Request: Likewise for CC1CN(S(=O)(=O)c2cccc3cnccc23)C(C)CN1 (stereo not drawn) [Compound 40] ?
Result: band C

Request: Try the compound O=S(=O)(c1cccc2cnccc12)N1CCNCC1 [Compound 35]
Result: band C

====

- System: femoral artery
- assay text: Effect on blood flow volume of femoral artery of dog
- Assay type: in vivo, dog of mixed breed
- particulars: Canis lupus familiaris, iv, 1 mg/Kg intravenous; anesthetized dog; read-out: Increased Blood Flow Volume in Femoral Artery
- Excerpt: […]
Output class 1 for records whose change in vivo at 1 mg/kg is lower than 30%, class 0 for records at or above 30%.

Known results for compounds:
>>> label("NCCCCNS(=O)(=O)c1cccc2cnccc12")
"class 0"
>>> label("CCCCN(CCCC)CCCNS(=O)(=O)c1cccc2cnccc12")
"class 1"
>>> label("O=S(=O)(c1cccc2cnccc12)N1CCCC1")
"class 0"
>>> label("O=S(=O)(c1cccc2cnccc12)N1CCNCC1")
"class 0"
>>> label("O=S(=O)(c1cccc2cnccc12)N1CCN(CC=Cc2ccccc2)CC1")
"class 1"

Request: Say whether its change in vivo at 1 mg/kg is strictly beneath 30%. Entry: CC1CN(S(=O)(=O)c2cccc3cnccc23)C(C)CN1 (stereo not drawn)
Result: class 0

Request: Input "CN1CCN(S(=O)(=O)c2cccc3cnccc23)CC1"
Result: class 0

Request: Could you do the same for "CNS(=O)(=O)c1cccc2cnccc12" , please?
Result: class 0

The origin of these recorded values is patent US4525589A.
